Biological target: MUSK (human)
Assay: radiometric filter-binding kinase assay, Kinase HotSpot
Details: compound 0.5 µM; ATP 10 µM
API: label(entry) gives t if the entry's residual activity is strictly smaller than 80%; on equality or larger values it gives f.

Lookup: Hi there! Is residual activity for O=C(O)/C=C/c1cc(Br)c(Br)c(Br)c1Br below 80%, do you know?
Found: t

Lookup: Lab note: residual activity threshold 80%. Does this molecule come in strictly under it? O=C1NC(=O)C(c2c[nH]c3ccccc23)=C1c1c[nH]c2ccccc12
Found: t

Lookup: Please check: residual activity for CN(C)C[C@H]1CCn2c(c(C3=C(c4cn(C)c5ccccc45)C(=O)NC3=O)c3ccccc32)C1 , strictly under 80% or not?
Found: f

Lookup: In plain terms, does Cn1nc2c3c(cccc31)C(=O)c1ccccc1-2 come in under 80% for residual activity?
Found: f

----------
Target: UniProt P29376
Sequence (P29376 whole entry, looked up): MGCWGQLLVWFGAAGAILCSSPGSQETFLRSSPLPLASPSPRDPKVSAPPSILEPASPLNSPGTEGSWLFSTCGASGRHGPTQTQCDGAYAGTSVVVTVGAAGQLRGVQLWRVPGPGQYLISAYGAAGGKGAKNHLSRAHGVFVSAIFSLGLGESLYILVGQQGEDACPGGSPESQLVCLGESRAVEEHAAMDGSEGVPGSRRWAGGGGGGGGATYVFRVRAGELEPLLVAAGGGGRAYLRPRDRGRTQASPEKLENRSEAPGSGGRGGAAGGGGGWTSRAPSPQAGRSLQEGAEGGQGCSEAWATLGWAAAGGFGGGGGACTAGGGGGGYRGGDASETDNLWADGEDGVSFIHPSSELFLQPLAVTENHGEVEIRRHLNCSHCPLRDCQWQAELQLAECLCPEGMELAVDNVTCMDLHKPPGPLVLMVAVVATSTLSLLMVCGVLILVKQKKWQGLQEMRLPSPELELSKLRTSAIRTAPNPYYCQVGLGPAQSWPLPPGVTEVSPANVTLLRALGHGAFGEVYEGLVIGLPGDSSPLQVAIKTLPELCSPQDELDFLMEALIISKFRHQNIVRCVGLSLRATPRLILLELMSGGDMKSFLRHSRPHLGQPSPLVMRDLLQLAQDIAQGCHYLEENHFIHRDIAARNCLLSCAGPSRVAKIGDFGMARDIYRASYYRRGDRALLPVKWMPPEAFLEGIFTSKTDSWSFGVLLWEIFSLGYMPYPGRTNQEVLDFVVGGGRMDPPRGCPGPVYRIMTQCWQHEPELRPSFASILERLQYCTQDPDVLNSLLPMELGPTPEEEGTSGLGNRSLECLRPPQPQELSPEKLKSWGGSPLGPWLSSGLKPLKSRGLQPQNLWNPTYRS
Experiment: radiometric filter-binding kinase assay, Kinase HotSpot
Settings: compound 0.5 µM; ATP 10 µM
quantityName: residual activity (%)
Give your result in % as a bare value.

Lookup: Reported residual activity for O=C(CCCc1ccc(-c2ccccc2F)cc1)Nc1ccc(O)cc1 : what is it?
Found: 106

Lookup: Quick one: residual activity of CC(C)c1nn(-c2c(Cl)cccc2Cl)c2nc(Cc3ccc(OCCO)cc3)nc(O)c12 ?
Found: 87.4

Lookup: Bench note: what residual activity did Oc1ccc(Nc2nc(-c3ccc(Cl)cc3)cs2)cc1 show?
Found: 104

Lookup: So what does the record say about residual activity for Cc1ccc(NC(=O)c2ccc(CN3CCN(C)CC3)cc2)cc1Nc1nccc(-c2cccnc2)n1 ?
Found: 100

Lookup: Quick one: residual activity for Nc1nccc(-c2c(-c3ccc(F)cc3)ncn2C2CCNCC2)n1 ?
Found: 97.3

Lookup: State the recorded residual activity for this entry: COc1ccc(OC)c2c(=S)c3ccccc3[nH]c12
Found: 84.5

Lookup: Tell me the measured residual activity of COc1cc2ncc(-c3ccccc3)nc2cc1OC , please.
Found: 97.9

Lookup: Please give the measured residual activity for this molecule: Cn1cnc2cc3c(Nc4cccc(Br)c4)ncnc3cc21
Found: 77.9

Lookup: Look up residual activity for this molecule: O=C(O)/C=C/c1cc(Br)c(Br)c(Br)c1Br
Found: 94.5

Lookup: Given the molecule CC(=O)O/N=C1\C(=C2\C(=O)Nc3cc(Br)ccc32)Nc2ccccc21 , what is its reported residual activity?
Found: 83.3

----------
Molecular target: UniProt:O14757
Sequence (O14757 whole entry, looked up): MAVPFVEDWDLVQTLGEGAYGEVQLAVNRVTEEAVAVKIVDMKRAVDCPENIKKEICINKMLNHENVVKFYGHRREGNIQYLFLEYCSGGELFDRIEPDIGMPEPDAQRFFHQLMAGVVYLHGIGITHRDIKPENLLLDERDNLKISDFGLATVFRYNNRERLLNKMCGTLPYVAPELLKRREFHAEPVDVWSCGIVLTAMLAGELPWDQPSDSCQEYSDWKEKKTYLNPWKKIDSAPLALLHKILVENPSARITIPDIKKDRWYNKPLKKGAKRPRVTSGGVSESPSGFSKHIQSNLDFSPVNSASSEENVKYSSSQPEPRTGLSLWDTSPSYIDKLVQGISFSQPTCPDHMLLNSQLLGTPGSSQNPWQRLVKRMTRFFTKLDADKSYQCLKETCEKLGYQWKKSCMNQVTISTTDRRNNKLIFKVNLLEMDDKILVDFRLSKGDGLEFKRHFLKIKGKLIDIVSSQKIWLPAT
Assay: radiometric filter-binding kinase assay, Kinase HotSpot
Details: compound 0.5 µM; ATP 10 µM
quantityName: residual activity (%)
Number in %, nothing else.

Lookup: Entry Nc1nnc2[nH]c3ccccc3nc1-2 has what residual activity?
Found: 187

Lookup: Quick one: residual activity for COc1cc2ncnc(N3CCN(C(=O)Nc4ccc(Oc5ccccc5)cc4)CC3)c2cc1OC ?
Found: 99.4

Lookup: Which residual activity value is on record for O=C1Nc2ccccc2/C1=C1/Nc2ccccc2/C1=N\OCCC(O)CO (configuration not stated) ?
Found: 67

Lookup: # lookup: residual activity of O=C1NC(=O)C(c2cn(CCCO)c3ncccc23)=C1c1cnccn1
Found: 141

Lookup: State the recorded residual activity for this entry: CCN(CC)CCCCN1c2ccccc2Oc2ccc(Cl)cc21
Found: 101

Lookup: # residual activity lookup, item CC(C)[C@H](CO)Nc1nc(Nc2cc(N)cc(Cl)c2)c2ncn(C(C)C)c2n1
Found: 96.2

Lookup: What value of measured residual activity is listed for CN([C@@H](Cc1ccc(OS(=O)(=O)c2cccc3cnccc23)cc1)C(=O)N1CCN(c2ccccc2)CC1)S(=O)(=O)c1cccc2cnccc12 ?
Found: 99.5

Lookup: Which residual activity is reported for this compound? Cn1sc(=O)n(Cc2ccccc2)c1=O
Found: 103

Lookup: Endpoint output: residual activity of O=C1Cc2c([nH]c3ccc(Br)cc23)-c2ccccc2N1 . Value?
Found: 89

Lookup: Data request, read-out residual activity, for Oc1ccc(Nc2nc(-c3ccc(Cl)cc3)cs2)cc1
Found: 99.4

Lookup: Reported residual activity, compound Cn1cnc2cc3c(Nc4cccc(Br)c4)ncnc3cc21 : ____
Found: 113

Lookup: Which residual activity reading was recorded for the compound COc1ccc(CNC(=O)Nc2ncc([N+](=O)[O-])s2)cc1 ?
Found: 98

Lookup: Fill in the blank: the reported residual activity of O=C(Nc1cccc(Nc2cc(Nc3cccc(C(F)(F)F)c3)ncn2)c1)C1CC1 is ____.
Found: 105

Lookup: Can you look up the measured residual activity of O=C1Nc2ccccc2/C1=C1\Nc2ccccc2\C1=N/O for me?
Found: 65.3

Lookup: I have this compound here, COc1cc2ncc(-c3ccccc3)nc2cc1OC , and I need its recorded residual activity.
Found: 94.7

Lookup: Data request, read-out residual activity, for CCn1cnc2c(Nc3cccc(Cl)c3)nc(N[C@@H]3CCCC[C@@H]3N)nc21
Found: 85.8

Lookup: Which value of residual activity has been reported for CC(=O)O/N=C1\C(=C2\C(=O)Nc3cc(Br)ccc32)Nc2ccccc21 in the records?
Found: 100

Lookup: Using the record for Nc1nccc(-c2c(-c3ccc(F)cc3)ncn2C2CCNCC2)n1 , report its residual activity.
Found: 99.8

Lookup: Value lookup for residual activity; key = CN(C)C[C@H]1CCn2c(c(C3=C(c4cn(C)c5ccccc45)C(=O)NC3=O)c3ccccc32)C1
Found: 69.8

Lookup: Item CC(C)c1nn(-c2c(Cl)cccc2Cl)c2nc(Cc3ccc(OCCO)cc3)nc(O)c12 has what recorded residual activity?
Found: 96.2

Lookup: Recorded residual activity for O=C(O)/C=C/c1cc(Br)c(Br)c(Br)c1Br , please?
Found: 135

Lookup: Find the recorded residual activity belonging to Cc1nc2cc3nc(-c4cccs4)cnc3cc2n1C and report it.
Found: 99.8
